biological target: KRAS G12S (Homo sapiens, UniProt P01116, G12S); construct: made in house; host or cells: E. coli, e.g. BL21 (DE3); test: HTRF assay, KRAS G12S interaction with SOS1; format: biochemical; details: bins <500 nM / 500 nM to 1000 nM, read-out: Inhibition of KRAS G12S (IC50)
Sequence (P01116 1-188 isoform P01116-2 G12S): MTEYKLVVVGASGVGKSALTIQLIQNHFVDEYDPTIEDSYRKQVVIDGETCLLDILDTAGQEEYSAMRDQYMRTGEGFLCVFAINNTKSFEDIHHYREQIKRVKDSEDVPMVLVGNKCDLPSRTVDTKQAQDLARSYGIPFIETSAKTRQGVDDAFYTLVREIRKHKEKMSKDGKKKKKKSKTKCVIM
pIC50: −log10 of the molar value.
MEASURED ATTRIBUTE: pIC50

INSERT INTO results (molecule, reported) VALUES
  ('C[C@@H]1[C@H](N(C)c2nc(OC[C@@]34CCCN3C[C@H](F)C4)nc3c(F)c(-c4ccc(F)c5sc(N)c(C#N)c45)c(Cl)cc23)CCN1C(=O)n1cc(C#N)cn1 [Compound 220]', '> 6.30'),
  ('CCN(c1nc(OC[C@@]23CCCN2[C@H](COc2ccc(C(F)(F)F)nn2)CC3)nc2c(F)c(-c3ccc(F)c4sc(N)c(C#N)c34)c(Cl)cc12)[C@@H]1CCN(C(=O)n2cc(C)nc2C)[C@@H]1C [Compound 182]', '> 6.30');

The molecule listed as C[C@@H]1[C@H](N(C)c2nc(OC[C@@]34CCCN3C[C@H](F)C4)nc3c(F)c(-c4ccc(F)c5sc(N)c(C#N)c45)c(Cl)cc23)CCN1C(=O)n1cnc(F)n1 [Compound 112] has a reported pIC50 of > 6.30

* * *

biological target: KRAS WT (Homo sapiens, UniProt P01116); experiment: HTRF assay, wildtype KRAS interaction with SOS1; settings: bins <500 nM / 500 nM to 1000 nM, read-out: Inhibition of KRAS WT (IC50)
Sequence (P01116 1-188 isoform P01116-2): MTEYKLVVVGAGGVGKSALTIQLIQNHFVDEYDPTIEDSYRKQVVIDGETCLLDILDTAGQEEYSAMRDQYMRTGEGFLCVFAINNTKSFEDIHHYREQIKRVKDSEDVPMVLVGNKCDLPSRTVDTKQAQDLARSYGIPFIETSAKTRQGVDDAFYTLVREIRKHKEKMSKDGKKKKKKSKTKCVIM
MEASURED ATTRIBUTE: IC50

Reference set, count: 2
INSERT INTO assay_data (compound, measured_attribute, reported) VALUES
  ('Cc1ncn(C(=O)N2CC[C@@]23CCN(c2nc(OC[C@@]45CCCN4C[C@H](F)C5)nc4c(F)c(-c5ccc(F)c6sc(N)c(C#N)c56)c(Cl)cc24)C3)c1C', 'IC50', '< 0.5 µM'),
  ('CCN(c1nc(OC[C@@]23CCCN2C[C@H](F)C3)nc2c(F)c(-c3ccc(F)c4sc(N)c(C#N)c34)c(Cl)cc12)[C@@H]1CCN(C(=O)n2cnc3c2CCC3)[C@@H]1C', 'IC50', '< 0.5 µM');

Please find the next compound below.
The compound listed as Cc1cn(C(=O)N2CC3(CCCCN(c4nc(OC[C@@]56CCCN5C[C@H](F)C6)nc5c(F)c(-c6ccc(F)c7sc(N)c(C#N)c67)c(Cl)cc45)C3)C2)c(C)n1 has a reported IC50 of < 0.5 µM

* * *

biological target: KRAS WT (Homo sapiens, UniProt P01116); test: HTRF assay, wildtype KRAS interaction with SOS1; details: bins <500 nM / 500 nM to 1000 nM, read-out: Inhibition of KRAS WT (IC50)
MEASURED ATTRIBUTE: IC50

INSERT INTO results (compound, study_system, reported) VALUES
  ('Cc1ncn(C(=O)N2CC3CCCN(c4nc(OC[C@@]56CCCN5C[C@H](F)C6)nc5c(F)c(-c6ccc(F)c7sc(N)c(C#N)c67)c(Cl)cc45)C3C2)c1C (some centres unmarked)', 'KRAS WT (Homo sapiens, UniProt P01116)', '< 0.5 µM'),
  ('CCN(c1nc(OC[C@@]23CCCN2C[C@H](F)C3)nc2c(F)c(-c3cc(N)c(F)c(C)c3C(F)(F)F)ncc12)[C@@H]1CCN(C(=O)n2cnc(Cl)n2)[C@@H]1C', 'KRAS WT (Homo sapiens, UniProt P01116)', '0.5 to 1 µM'),
  ('Cc1c(F)c(N)cc(-c2ncc3c(N(C)[C@@H]4CCN(C(=O)n5cnc(F)n5)[C@@H]4C)nc(OC[C@@]45CCCN4C[C@H](F)C5)nc3c2F)c1C(F)(F)F', 'KRAS WT (Homo sapiens, UniProt P01116)', '< 0.5 µM'),
  ('C[C@@H]1[C@H](N(C)c2nc(OC[C@@]34CCCN3C[C@H](F)C4)nc3c(F)c(-c4ccc(F)c5sc(N)c(C#N)c45)c(Cl)cc23)CCN1C(=O)n1cnc(C2CC2)c1', 'KRAS WT (Homo sapiens, UniProt P01116)', '< 0.5 µM');

The compound listed as Cc1c(C#N)ncn1C(=O)N1C[C@]2(CCCCN(c3nc(OC[C@@]45CCCN4C[C@H](F)C5)nc4c(F)c(-c5ccc(F)c6sc(N)c(C#N)c56)c(Cl)cc34)C2)[C@H]1C has a reported IC50 of < 0.5 µM

From: patent US20260217735A1
